Tested on: RS4;11
assay: In vitro antiproliferative activity (MTT), RS4;11
Format: cell-based
testParameters: Homo sapiens, tumor cell proliferation, 72 h, mean ± SE
In plain terms, low IC50, meaning strictly below 200 nM, gives 1.0, and everything else gives 0.0.

{"compound": "CCOc1ccccc1-c1nccn1-c1cc(OC)c(OC)c(OC)c1", "classLabel": 0.0}
{"compound": "COc1ccc(/C=C\\c2cc(OC)c(OC)c(OC)c2)cc1O [CA-4, Combretastatin A-4, reference compound]", "classLabel": 0.0}
{"compound": "COc1cc(-n2ccnc2-c2cc(C)c(OC)c(C)c2)cc(OC)c1OC", "classLabel": 0.0}
{"compound": "COc1cc(-c2nccn2-c2cc(OC)c(OC)c(OC)c2)ccc1C", "classLabel": 0.0}
{"compound": "CCSc1ccc(-c2nccn2-c2cc(OC)c(OC)c(OC)c2)cc1", "classLabel": 1.0}
{"compound": "COc1cc(-n2ccnc2-c2ccc(SC)cc2)cc(OC)c1OC", "classLabel": 0.0}
{"compound": "CCOc1ccc(-c2nccn2-c2cc(OC)c(OC)c(OC)c2)cc1F", "classLabel": 1.0}
{"compound": "COc1ccc(-c2nccn2-c2cc(OC)c(OC)c(OC)c2)cc1F", "classLabel": 0.0}
{"compound": "COc1ccc(-c2nccn2-c2cc(OC)c(OC)c(OC)c2)cc1OC", "classLabel": 0.0}
